Recorded plant injury at 62.5 g/ha values for a group of compounds are listed next.
- System: corn (Zea mays)
- method notes: Test G Pre-Emergence Protocol
- Type: in vivo
- measurement conditions: Zea mays, pre-emergence, 312 h, 62.5 g ai/ha, evaluated after 13 days, 100=total damage to plant, 0=no damage to plant, read-out: plant damage rating, Corn
The reply should be a number in %, with the unit left off.

Solved entries:
compound: CN1C[C@H](c2ccc(C(F)(F)F)cc2)[C@@H](C(=O)Nc2ccccc2C(C)(C)C)C1=O (racemic) [Compound 1445]
endpoint: plant injury at 62.5 g/ha
unit tag: %
observed value: 0
--
compound: CN1C[C@@H](c2ccc(C(F)(F)F)cc2)[C@H](C(=O)Nc2ccn(C)n2)C1=O (racemic) [Compound 1615]
endpoint: plant injury at 62.5 g/ha
unit tag: %
observed value: 0

Now for the compound whose plant injury at 62.5 g/ha we want.
Reported plant injury at 62.5 g/ha for CN1C[C@H](c2ccc(C(F)(F)F)cc2)[C@](C)(C(=O)Nc2cccc(F)c2F)C1=O (racemic) [Compound 1406] was 0

---

- Tested on: ragweed (common ragweed, Ambrosia elatior)
- method notes: Test A preemergence
- Assay type: in vivo
- measurement conditions: 125 g ai/ha, preemergence; 0 to 100 scale (0 no effect, 100 complete control)
Recorded Plant response rating, Ragweed values for a group of compounds are listed next.

Solved entries:
compound: Cc1cc(NC(=O)C2C(=O)NCC2c2ccc(F)c(F)c2)ccc1C(F)(F)F (stereo not shown)
measurement target: ragweed (common ragweed, Ambrosia elatior)
endpoint: Plant response rating, Ragweed
observed value: 0

compound: Cc1ccc(F)c(NC(=O)C2C(=O)NCC2c2ccc(F)c(F)c2)c1 (stereo not shown)
measurement target: ragweed (common ragweed, Ambrosia elatior)
endpoint: Plant response rating, Ragweed
observed value: 0

compound: Cc1cc(C2CN(C)C(=O)C2C(=O)Nc2cccc(F)c2F)ccc1F (stereo not shown)
measurement target: ragweed (common ragweed, Ambrosia elatior)
endpoint: Plant response rating, Ragweed
observed value: 50

compound: CN1CC(c2cccc(OC(F)(F)C(F)F)c2)C(C(=O)Nc2ccc(F)c(F)c2F)C1=O (stereo not shown)
measurement target: ragweed (common ragweed, Ambrosia elatior)
endpoint: Plant response rating, Ragweed
observed value: 50

compound: CN1CC(c2ccc3c(c2)OC(F)(F)O3)C(C(=O)Nc2ccc(F)cc2F)C1=O (stereo not shown)
measurement target: ragweed (common ragweed, Ambrosia elatior)
endpoint: Plant response rating, Ragweed
observed value: 50

Reported Plant response rating, Ragweed for CN1CC(c2ccc(Cl)cc2)C(C(=O)Nc2ccc(F)cc2F)C1=O (stereo not shown) was 0

Reported Plant response rating, Ragweed for CS(=O)(=O)c1ccccc1NC(=O)C1C(=O)NCC1c1ccc(Br)cc1 (stereo not shown) was 20

---

- System: corn (Zea mays)
- method notes: Test A postemergence
- Assay type: in vivo
- measurement conditions: Postemergence, 500 g ai/ha; 0 to 100 scale where 0 is no effect and 100 is complete control
Recorded Plant response rating, Corn values for a group of compounds are listed next.
Give the figure only, with no unit attached.

Solved entries:
compound: O=C1NCC(c2ccc(F)cc2F)C1C(=O)Nc1ccccc1F (stereo not drawn)
Plant response rating, Corn: 0
//
compound: CN1CC(c2cccc(OC(F)F)c2)C(C(=O)Nc2cccc(F)c2F)C1=O (stereo not drawn)
Plant response rating, Corn: 80
//
compound: C=C(Cl)CN1CC(c2cccc(C(F)(F)F)c2)C(C(=O)Nc2ccccc2F)C1=O (stereo not drawn)
Plant response rating, Corn: 0
//
compound: O=C1NCC(c2cccc(F)c2F)C1C(=O)Nc1ccccc1F (stereo not drawn)
Plant response rating, Corn: 0
//
compound: CC(C)Oc1cccc(C2CNC(=O)C2C(=O)Nc2cccc(F)c2F)c1 (stereo not drawn)
Plant response rating, Corn: 90

corn (Zea mays) Plant response rating, Corn of O=C1NCC(c2ccc3c(c2)OC(F)(F)O3)C1C(=O)Nc1cccc(F)c1F (stereo not drawn) is 70

corn (Zea mays) Plant response rating, Corn of O=C1NCC(c2cccc(C(F)(F)F)c2F)C1C(=O)Nc1ccccc1F (stereo not drawn) is 70

corn (Zea mays) Plant response rating, Corn of O=C1NCC(c2ccc(C3CC3)cc2)C1C(=O)Nc1cccc(F)c1F (racemic) is 30

corn (Zea mays) Plant response rating, Corn of CC(C)Oc1cccc(C2CNC(=O)C2C(=O)Nc2ccc(F)c(F)c2F)c1 (stereo not drawn) is 70
